Listing: pIC50 of selected molecules
System: K562
method: Tested for cytotoxicity in human K562 cells
Assay type: functional
assay_setup: read-out: ID50 (the source's name)
pIC50: −log10 of the molar value.

Please review the entries below; each comes with its answer.
Enquiry: Consider the molecule CCCCCCCCOC(=O)CNC(=O)C(CSc1ccc([N+](=O)[O-])cc1[N+](=O)[O-])NC(=O)CCC(NC(=O)OCc1ccccc1)C(=O)OCCCCCCCC (configuration not stated) . State its measured pIC50.
Return: 4.61

Enquiry: Consider the molecule O=C(O)CNC(=O)C(CSCc1ccc(Br)cc1)NC(=O)CCC(NC(=O)OCc1ccccc1)C(=O)O (configuration not stated) . State its measured pIC50.
Return: < 4.30

Enquiry: Consider the molecule COC(=O)CNC(=O)C(CSC(=O)OCc1ccccc1)NC(=O)CCC(NC(C)=O)C(=O)OC (configuration not stated) . State its measured pIC50.
Return: < 4.30

Pending molecule:
Enquiry: Consider the molecule O=C(CCC(NC(=O)OCc1ccccc1)C(=O)OC1CCCCC1)NC(CSc1ccc([N+](=O)[O-])cc1[N+](=O)[O-])C(=O)NCC(=O)OC1CCCCC1 (configuration not stated) . State its measured pIC50.
Return: 4.80

* * *

System: K562
method: Tested for cytotoxicity in human K562 cells
Type: functional
assay_setup: read-out: ID50 (the source's name)
Listing: IC50 of selected compounds

Please review the entries below; each comes with its answer.
Enquiry: Supply IC50 measured with K562 for CC(=O)NC(CCC(=O)NC(CSCc1ccc(Br)cc1)C(=O)NCC(=O)O)C(=O)O (stereo not drawn) .
Return: > 50 µM

Enquiry: Supply IC50 measured with K562 for COC(=O)CNC(=O)C(CSCc1ccc(Br)cc1)NC(=O)CCC(N)C(=O)OC (stereo not drawn) .
Return: > 50 µM

---
Enquiry: Supply IC50 measured with K562 for NC(=O)CNC(=O)C(CSCc1ccc(Br)cc1)NC(=O)CCC(NC(=O)OCc1ccccc1)C(=O)O (stereo not drawn) .
Return: > 50 µM

* * *

Test system: K562
method: Tested for cytotoxicity in human K562 cells
Format: functional
assay_setup: read-out: ID50 (the source's name)
property_measured: IC50

Please review the entries below; each comes with its answer.
Enquiry: Consider the molecule COC(=O)CNC(=O)C(CSC(=O)OCc1ccccc1)NC(=O)CCC(NC(=O)OCc1ccccc1)C(=O)OC (stereo not drawn) . State its measured IC50.
Return: 1.26 µM

Enquiry: Consider the molecule COC(=O)CNC(=O)C(CSCc1ccc(Br)cc1)NC(=O)CCC(NC(=O)OCc1ccccc1)C(=O)O (stereo not drawn) . State its measured IC50.
Return: > 50 µM

Enquiry: Consider the molecule COC(=O)CNC(=O)C(CSCc1ccc(Br)cc1)NC(=O)CCC(N)C(=O)O (stereo not drawn) . State its measured IC50.
Return: > 50 µM

Enquiry: Consider the molecule NC(=O)CNC(=O)C(CSCc1ccc(Br)cc1)NC(=O)CCC(NC(=O)OCc1ccccc1)C(N)=O (stereo not drawn) . State its measured IC50.
Return: > 50 µM

Enquiry: Consider the molecule NC(=O)CNC(=O)C(CSCc1ccc(Br)cc1)NC(=O)CCC(N)C(=O)O (stereo not drawn) . State its measured IC50.
Return: > 50 µM

Enquiry: Consider the molecule COC(=O)CNC(=O)C(CSCc1ccc(Br)cc1)NC(=O)CCC(NC=O)C(=O)OC (stereo not drawn) . State its measured IC50.
Return: > 50 µM

Enquiry: Consider the molecule O=CNC(CCC(=O)NC(CSCc1ccc(Br)cc1)C(=O)NCC(=O)O)C(=O)O (stereo not drawn) . State its measured IC50.
Return: > 50 µM

Enquiry: Consider the molecule COC(=O)CNC(=O)C(CSCc1ccc(Br)cc1)NC(=O)CCC(NC(=O)OCc1ccccc1)C(=O)OC (stereo not drawn) . State its measured IC50.
Return: 16.7 µM

---
Enquiry: Consider the molecule CCCCOC(=O)CNC(=O)C(CSCc1ccc(Br)cc1)NC(=O)CCC(NC(=O)OCc1ccccc1)C(=O)OCCCC (stereo not drawn) . State its measured IC50.
Return: 16.7 µM

Enquiry: Consider the molecule N[C@@H](CCC(=O)N[C@@H](CSCc1ccc(Br)cc1)C(=O)NCC(=O)O)C(=O)O . State its measured IC50.
Return: > 50 µM

Enquiry: Consider the molecule NC(=O)CNC(=O)C(CSCc1ccc(Br)cc1)NC(=O)CCC(N)C(N)=O (stereo not drawn) . State its measured IC50.
Return: > 50 µM

Enquiry: Consider the molecule CCCOC(=O)CNC(=O)C(CSc1ccc([N+](=O)[O-])cc1[N+](=O)[O-])NC(=O)CCC(NC(=O)OCc1ccccc1)C(=O)OCCC (stereo not drawn) . State its measured IC50.
Return: 17.6 µM

Enquiry: Consider the molecule CCCCCCOC(=O)CNC(=O)C(CSc1ccc([N+](=O)[O-])cc1[N+](=O)[O-])NC(=O)CCC(NC(=O)OCc1ccccc1)C(=O)OCCCCCC (stereo not drawn) . State its measured IC50.
Return: > 50 µM

The measurements presented in this section are drawn from ChEMBL document CHEMBL1132941.
